Format: physicochemical
RUN_CONDITIONS: pH 3.8; 2-8° C.; 7.2 h
Quick list: % assay/degs, difference from T = 0 per entry.

- COMPOUND: "CCC(CC)COC(=O)[C@H](C)N[P@](=O)(OC[C@H]1O[C@@](C(N)=O)(c2ccc3c(N)ncnn23)[C@H](O)[C@@H]1O)Oc1ccccc1 [Compound G]"
  % assay/degs, difference from T = 0: "0.00%"
- COMPOUND: "N#C[C@@]1(c2ccc3c(N)ncnn23)O[C@H](CO)[C@@H](O)[C@H]1O [Compound A]"
  % assay/degs, difference from T = 0: "0.00%"
- COMPOUND: "N#C[C@@]1(c2ccc3c(N)ncnn23)O[C@H](COP(=O)(O)Oc2ccccc2)[C@@H](O)[C@H]1O [Compound F]"
  % assay/degs, difference from T = 0: "0.00%"
- COMPOUND: "CCC(CC)COC(=O)[C@H](C)N[P@](=O)(OC[C@H]1O[C@@](C#N)(c2ccc3c(N)ncnn23)[C@H](O)[C@@H]1O)Oc1ccccc1 [Formula Ia]"
  % assay/degs, difference from T = 0: "−0.2%"
